Data credit: PubChem BioAssay (NCI)

- Test system: SF-295 CNS
- method summary: NCI tumour cell line growth inhibition, 48 h
# Lookup of reported log10 TGI keyed by entry
Short version: log10 scale, TGI, µM.

Reference set (5 entries):
molecule: CCCCCCC(O)C(O)CCC(O)C1CCC(CCCCC(O)CC2=CC(C)OC2=O)O1 (centres undefined)
test target: SF-295 CNS
reading: 1.30
//
molecule: CC(C)c1cc(C(=O)[O-])c(O)c(C(C)C)c1.CC(C)c1cc(C(=O)[O-])c(O)c(C(C)C)c1.CC(C)c1cc(C(=O)[O-])c(O)c(C(C)C)c1.CC(C)c1cc(C(=O)[O-])c(O)c(C(C)C)c1.CC(C)c1cc(C(=O)[O-])c(O)c(C(C)C)c1.CC(C)c1cc(C(=O)[O-])c(O)c(C(C)C)c1.[Cu+2].[Mn+2].[Mn+2]
test target: SF-295 CNS
reading: 1.69
//
molecule: Cc1cc(C)c(O)c(CNCCCNCc2cc(C)cc(C)c2O)c1
test target: SF-295 CNS
reading: 0.58
//
molecule: COc1ccc2[nH]c3c(C)c4ncccc4c(C)c3c2c1
test target: SF-295 CNS
reading: 0.97
//
molecule: COc1ccc(-c2cc(-c3ccc(Cl)cc3)nc(SCCCCCCC(=O)NO)n2)cc1
test target: SF-295 CNS
reading: 0.48

State the recorded log10 TGI for this entry: CC(C)(C)C(=O)CC(=O)C(F)(F)C(F)(F)C(F)(F)F.[Ag]
1.59

State the recorded log10 TGI for this entry: COc1ccc(C[C@H]2NC[C@H](O)[C@H]2OC(C)=O)cc1
-1.19

State the recorded log10 TGI for this entry: CCCCCC(=C/c1ccccc1)/C=N/N=C(N)N
0.54

State the recorded log10 TGI for this entry: CC1OC(OC2C[C@](O)(C(=O)CBr)Cc3c(O)c4c(c(O)c32)C(=O)c2ccccc2C4=O)C(F)C(O)C1O (some centres undefined)
1.44

State the recorded log10 TGI for this entry: C/C(=N\Nc1nc2ccccc2o1)c1cc2ccccc2cn1
0.66

State the recorded log10 TGI for this entry: O=C1c2cc([N+](=O)[O-])sc2C(=O)c2cc([N+](=O)[O-])sc21
1.38

State the recorded log10 TGI for this entry: COc1cc(C2SCC(=O)N2NC(=O)c2ccc(NC(C)=O)cc2OC)ccc1O (centres undefined)
1.67

State the recorded log10 TGI for this entry: CC(C)Cc1ccc(C(C)/C=C2\CCC(CN3CCCCC3)C2=O)cc1 (centres undefined)
1.42

###

- Test system: HOP-92 NSCLC
- method summary: NCI tumour cell line growth inhibition, 48 h
endpoint name: TGI

Reference set (6 entries):
molecule: S=C(S)N1CCN(c2ccccc2)CC1
TGI: > 100 µM
--
molecule: O=C1NC(N2CCCCC2)=N/C1=C\c1ccccc1
TGI: > 100 µM
--
molecule: COc1cc(C(=O)N(C(=S)OC23CC4CC(CC(C4)C2)C3)c2ccccc2)cc(OC)c1OC
TGI: > 100 µM
--
molecule: CCCCCN(CCCCC)C(=O)[C@H](CCC(=O)OCc1ccccc1)NC(=O)c1cc2ccccc2[nH]1
TGI: > 100 µM
--
molecule: COc1ccc2c(c1)C=C(C(C)(C)C)NS2(=O)=O
TGI: > 100 µM
--
molecule: CCN(CCCl)c1cc(CN(C)C)cc(NC(=O)c2ccc(C(=O)Nc3ccccc3)cc2)c1
TGI: 3.87 µM

Would you kindly look at the next entry?
State the recorded TGI for this entry: C=C(C1=CC(=O)C(C)(C)O1)[C@@H]1CC=C([C@@H]2CC[C@H]3[C@@]2(C)CC[C@H]2C(C)(C)C(=O)[C@H](OC(=O)CC(C)(O)CC(=O)O)C[C@]32C)[C@H](O)O1 (stereo partly drawn)
24.7 µM
